The entries below are paired with their reported MIC.
# System: Staphylococcus aureus
# measurement_notes: Antibacterial activity against methicillin resistant Staphylococcus aureus M22 incubated for 16 to 18 hrs by broth dilution method
# Type: functional
# measurement_parameters: time 16-18 hrs
The figure you give is taken to be in µg/mL; do not add the unit.

Take a look at these entries with their results.
{"smiles_string": "C=CCc1cc(-c2ccc(OCCC[N+](C)(C)CC(=O)NCCCC)c(CC=C)c2)c2oc(-c3ccc(F)cc3Cl)nc2c1.[Br-]", "MIC / µg/mL": 4}
{"smiles_string": "C=CCc1cc(-c2ccc(OCCC[N+](C)(C)CC(=O)NCCCC)c(CC=C)c2)c2oc(-c3cc(Br)cc(Br)c3)nc2c1.[Br-]", "MIC / µg/mL": 128}
{"smiles_string": "C=CCc1cc(-c2ccc(OCCC[N+](C)(C)CC(=O)NCCCC)c(CC=C)c2)c2oc(-c3cccc(Cl)c3Cl)nc2c1.[Br-]", "MIC / µg/mL": 8}
{"smiles_string": "C=CCc1cc(-c2ccc(OCCC[N+](C)(C)CC(=O)NCCCC)c(CC=C)c2)c2oc(-c3ccccc3F)nc2c1.[Br-]", "MIC / µg/mL": 4}
{"smiles_string": "C=CCc1cc(-c2ccc(OCCC[N+](C)(C)CC(=O)NCCCC)c(CC=C)c2)c2oc(-c3ccc(Cl)cc3Cl)nc2c1.[Br-]", "MIC / µg/mL": 16}
{"smiles_string": "C=CCc1cc(-c2ccc(OCCC[N+](C)(C)CC(=O)NCCCC)c(CC=C)c2)c2oc(-c3ccc(Br)cc3)nc2c1.[Br-]", "MIC / µg/mL": 16}

Which MIC value is on record for C=CCc1cc(-c2ccc(OCCC[N+](C)(C)CC(=O)NCCCC)c(CC=C)c2)c2oc(-c3ccc(Br)cc3Br)nc2c1.[Br-] ?
32

So what does the record say about MIC for C=CCc1cc(-c2ccc(OCCC[N+](C)(C)CC(=O)NCCCC)c(CC=C)c2)c2oc(-c3ccc(F)cc3)nc2c1.[Br-] ?
8

Can you look up the measured MIC of C=CCc1cc(-c2ccc(OCCC[N+](C)(C)CC(=O)NCCCC)c(CC=C)c2)c2oc(-c3ccc(F)c(F)c3)nc2c1.[Br-] for me?
16

What does the data say about its MIC? Entry: C=CCc1cc(-c2ccc(OCCC[N+](C)(C)CC(=O)NCCCC)c(CC=C)c2)c2oc(-c3ccc(Cl)cc3)nc2c1.[Br-]
8

I'd like to know its MIC. The compound in question is C=CCc1cc(-c2ccc(OCCC[N+](C)(C)CC(=O)NCCCC)c(CC=C)c2)c2oc(-c3cccc(Br)c3)nc2c1.[Br-]
8

Would you mind telling me what MIC value was observed for C=CCc1cc(-c2ccc(OCCC[N+](C)(C)CC(=O)NCCCC)c(CC=C)c2)c2oc(-c3ccccc3)nc2c1.[Br-] ?
2

What does the data say about its MIC? Entry: C=CCc1cc(-c2ccc(OCCC[N+](C)(C)CC(=O)NCCCC)c(CC=C)c2)c2oc(-c3ccc(Cl)cc3Br)nc2c1.[Br-]
128

* * *

# measurement_notes: Hemolytic activity in sheep RBC incubated for 1 hr
# Assay type: toxicity, cell-based, Ovis aries, Erythrocyte
# measurement_parameters: sheep red blood cells (erythrocytes)
measured_attribute: HC50 at 1 h

{"smiles_string": "C=CCc1cc(-c2ccc(OCCC[N+](C)(C)CC(=O)NCCCC)c(CC=C)c2)c2oc(-c3cc(Br)ccc3F)nc2c1.[Br-]", "measured_attribute": "HC50 at 1 h", "reported": "> 320 µg/mL"}
{"smiles_string": "C=CCc1cc(-c2ccc(OCCC[N+](C)(C)CC(=O)NCCCC)c(CC=C)c2)c2oc(-c3ccc(Cl)cc3)nc2c1.[Br-]", "measured_attribute": "HC50 at 1 h", "reported": "> 640 µg/mL"}
{"smiles_string": "C=CCc1cc(-c2ccc(OCCC[N+](C)(C)CC(=O)NCCCC)c(CC=C)c2)c2oc(-c3ccccc3Br)nc2c1.[Br-]", "measured_attribute": "HC50 at 1 h", "reported": "> 320 µg/mL"}

Okay, now this compound:
What does the record list as HC50 at 1 h for C=CCc1cc(-c2ccc(OCCC[N+](C)(C)CC(=O)NCCCC)c(CC=C)c2)c2oc(-c3ccc(Cl)cc3Br)nc2c1.[Br-] ?
> 320 µg/mL

* * *

# Test system: Staphylococcus aureus
# measurement_notes: Antibacterial activity against methicillin resistant Staphylococcus aureus M11 incubated for 16 to 18 hrs by broth dilution method
# Format: functional
# measurement_parameters: time 16-18 hrs
measured_attribute: MIC

{"smiles_string": "C=CCc1cc(-c2ccc(OCCC[N+](C)(C)CC(=O)NCCCC)c(CC=C)c2)c2oc(-c3cc(Cl)cc(Cl)c3)nc2c1.[Br-]", "MIC": "> 128 µg/mL"}
{"smiles_string": "C=CCc1cc(-c2ccc(OCCC[N+](C)(C)CC(=O)NCCCC)c(CC=C)c2)c2oc(-c3ccc(Cl)cc3F)nc2c1.[Br-]", "MIC": "> 128 µg/mL"}

Attention now turns to another entry.
Record request: MIC value, item C=CCc1cc(-c2ccc(OCCC[N+](C)(C)CC(=O)NCCCC)c(CC=C)c2)c2oc(-c3ccc(Cl)c(Br)c3)nc2c1.[Br-]
> 128 µg/mL

* * *

# measurement_notes: Hemolytic activity in sheep RBC incubated for 1 hr
# Assay type: toxicity, cell-based, Ovis aries, Erythrocyte
# measurement_parameters: sheep red blood cells (erythrocytes)
Reported HC50 at 1 h values for a set of compounds

Here's what some known entries look like.
{"smiles_string": "C=CCc1cc(-c2ccc(OCCC[N+](C)(C)CC(=O)NCCCC)c(CC=C)c2)c2oc(-c3ccccc3)nc2c1.[Br-]", "measured_attribute": "HC50 at 1 h", "reported": "> 160 µg/mL"}
{"smiles_string": "C=CCc1cc(-c2ccc(OCCC[N+](C)(C)CC(=O)NCCCC)c(CC=C)c2)c2oc(-c3cccc(Br)c3)nc2c1.[Br-]", "measured_attribute": "HC50 at 1 h", "reported": "> 320 µg/mL"}

Please find the next compound below.
Look up HC50 at 1 h for this compound: C=CCc1cc(-c2ccc(OCCC[N+](C)(C)CC(=O)NCCCC)c(CC=C)c2)c2oc(-c3ccc(F)cc3)nc2c1.[Br-]
> 320 µg/mL
